tested on: Saccharomyces cerevisiae ZIM 2558 (RPMI); assay: Bliss independence sum of statistically significant ΔE (measured minus predicted growth inhibition) over checkerboard surface (fraction (sum of ΔE; 1 = 100%)); higher = more synergy; settings: temperature: 37 °C
A collection of compounds and their measured Bliss independence sum
PROPERTY LABEL: Bliss independence sum

1. CN(Cc1cnc2nc(N)nc(N)c2n1)c1ccc(C(=O)N[C@@H](CCC(=O)O)C(=O)O)cc1 [methotrexate] + CCC(C)n1ncn(-c2ccc(N3CCN(c4ccc(OCC5COC(Cn6cncn6)(c6ccc(Cl)cc6Cl)O5)cc4)CC3)cc2)c1=O [itraconazole] : 1.01
2. C=CC[C@@H]1/C=C(\C)C[C@H](C)C[C@H](OC)[C@H]2O[C@@](O)(C(=O)C(=O)N3CCCC[C@H]3C(=O)O[C@H](/C(C)=C/[C@@H]3CC[C@@H](O)[C@H](OC)C3)[C@H](C)[C@@H](O)CC1=O)[C@H](C)C[C@@H]2OC [tacrolimus] + CCC(C)n1ncn(-c2ccc(N3CCN(c4ccc(OCC5COC(Cn6cncn6)(c6ccc(Cl)cc6Cl)O5)cc4)CC3)cc2)c1=O [itraconazole] : 8.75
3. C=CC[C@@H]1/C=C(\C)C[C@H](C)C[C@H](OC)[C@H]2O[C@@](O)(C(=O)C(=O)N3CCCC[C@H]3C(=O)O[C@H](/C(C)=C/[C@@H]3CC[C@@H](O)[C@H](OC)C3)[C@H](C)[C@@H](O)CC1=O)[C@H](C)C[C@@H]2OC [tacrolimus] + OC(Cn1cncn1)(Cn1cncn1)c1ccc(F)cc1F [fluconazole] : 1.84

====

tested on: Saccharomyces cerevisiae ZIM 2247 (RPMI); assay: Bliss independence sum of statistically significant ΔE (measured minus predicted growth inhibition) over checkerboard surface (fraction (sum of ΔE; 1 = 100%)); higher = more synergy; settings: temperature: 37 °C
Label MET when Bliss independence sum is at or above -1; otherwise label NOT MET.

1) CN(Cc1cnc2nc(N)nc(N)c2n1)c1ccc(C(=O)N[C@@H](CCC(=O)O)C(=O)O)cc1 [methotrexate] + OC(Cn1cncn1)(Cn1cncn1)c1ccc(F)cc1F [fluconazole] : MET
2) COc1c(C)c2c(c(O)c1C/C=C(\C)CCC(=O)O)C(=O)OC2 [mycophenolic acid] + OC(Cn1cncn1)(Cn1cncn1)c1ccc(F)cc1F [fluconazole] : NOT MET
3) C=CC[C@@H]1/C=C(\C)C[C@H](C)C[C@H](OC)[C@H]2O[C@@](O)(C(=O)C(=O)N3CCCC[C@H]3C(=O)O[C@H](/C(C)=C/[C@@H]3CC[C@@H](O)[C@H](OC)C3)[C@H](C)[C@@H](O)CC1=O)[C@H](C)C[C@@H]2OC [tacrolimus] + OC(Cn1cncn1)(Cn1cncn1)c1ccc(F)cc1F [fluconazole] : MET
4) COc1c(C)c2c(c(O)c1C/C=C(\C)CCC(=O)O)C(=O)OC2 [mycophenolic acid] + C[C@@H]1[C@H](O)[C@@H](C)/C=C/C=C/C=C/C=C/C=C/C=C/C=C/[C@H](O[C@@H]2O[C@H](C)[C@@H](O)[C@H](N)[C@@H]2O)C[C@@H]2O[C@](O)(C[C@@H](O)C[C@@H](O)[C@H](O)CC[C@@H](O)C[C@@H](O)CC(=O)O[C@H]1C)C[C@H](O)[C@H]2C(=O)O [amphotericin B] : NOT MET
5) C=CC[C@@H]1/C=C(\C)C[C@H](C)C[C@H](OC)[C@H]2O[C@@](O)(C(=O)C(=O)N3CCCC[C@H]3C(=O)O[C@H](/C(C)=C/[C@@H]3CC[C@@H](O)[C@H](OC)C3)[C@H](C)[C@@H](O)CC1=O)[C@H](C)C[C@@H]2OC [tacrolimus] + CCC(C)n1ncn(-c2ccc(N3CCN(c4ccc(OCC5COC(Cn6cncn6)(c6ccc(Cl)cc6Cl)O5)cc4)CC3)cc2)c1=O [itraconazole] : MET
6) CC1(C)S[C@@H]2[C@H](NC(=O)[C@H](N)c3ccc(O)cc3)C(=O)N2[C@H]1C(=O)O [amoxicillin] + C[C@@H]1[C@H](O)[C@@H](C)/C=C/C=C/C=C/C=C/C=C/C=C/C=C/[C@H](O[C@@H]2O[C@H](C)[C@@H](O)[C@H](N)[C@@H]2O)C[C@@H]2O[C@](O)(C[C@@H](O)C[C@@H](O)[C@H](O)CC[C@@H](O)C[C@@H](O)CC(=O)O[C@H]1C)C[C@H](O)[C@H]2C(=O)O [amphotericin B] : NOT MET
7) COc1c(C)c2c(c(O)c1C/C=C(\C)CCC(=O)O)C(=O)OC2 [mycophenolic acid] + CCC(C)n1ncn(-c2ccc(N3CCN(c4ccc(OCC5COC(Cn6cncn6)(c6ccc(Cl)cc6Cl)O5)cc4)CC3)cc2)c1=O [itraconazole] : MET
8) CC1(C)S[C@@H]2[C@H](NC(=O)[C@H](N)c3ccc(O)cc3)C(=O)N2[C@H]1C(=O)O [amoxicillin] + CCC(C)n1ncn(-c2ccc(N3CCN(c4ccc(OCC5COC(Cn6cncn6)(c6ccc(Cl)cc6Cl)O5)cc4)CC3)cc2)c1=O [itraconazole] : NOT MET
9) CC1(C)S[C@@H]2[C@H](NC(=O)[C@H](N)c3ccc(O)cc3)C(=O)N2[C@H]1C(=O)O [amoxicillin] + OC(Cn1cncn1)(Cn1cncn1)c1ccc(F)cc1F [fluconazole] : NOT MET
10) CN(Cc1cnc2nc(N)nc(N)c2n1)c1ccc(C(=O)N[C@@H](CCC(=O)O)C(=O)O)cc1 [methotrexate] + C[C@@H]1[C@H](O)[C@@H](C)/C=C/C=C/C=C/C=C/C=C/C=C/C=C/[C@H](O[C@@H]2O[C@H](C)[C@@H](O)[C@H](N)[C@@H]2O)C[C@@H]2O[C@](O)(C[C@@H](O)C[C@@H](O)[C@H](O)CC[C@@H](O)C[C@@H](O)CC(=O)O[C@H]1C)C[C@H](O)[C@H]2C(=O)O [amphotericin B] : NOT MET
11) CN(Cc1cnc2nc(N)nc(N)c2n1)c1ccc(C(=O)N[C@@H](CCC(=O)O)C(=O)O)cc1 [methotrexate] + CCC(C)n1ncn(-c2ccc(N3CCN(c4ccc(OCC5COC(Cn6cncn6)(c6ccc(Cl)cc6Cl)O5)cc4)CC3)cc2)c1=O [itraconazole] : MET

====

A collection of compounds and their measured Bliss independence sum
tested on: Candida glabrata ZIM 2344 (RPMI); assay: Bliss independence sum of statistically significant ΔE (measured minus predicted growth inhibition) over checkerboard surface (fraction (sum of ΔE; 1 = 100%)); higher = more synergy; conditions: temperature: 37 °C
PROPERTY LABEL: Bliss independence sum

1. CN(Cc1cnc2nc(N)nc(N)c2n1)c1ccc(C(=O)N[C@@H](CCC(=O)O)C(=O)O)cc1 [methotrexate] + C[C@@H]1[C@H](O)[C@@H](C)/C=C/C=C/C=C/C=C/C=C/C=C/C=C/[C@H](O[C@@H]2O[C@H](C)[C@@H](O)[C@H](N)[C@@H]2O)C[C@@H]2O[C@](O)(C[C@@H](O)C[C@@H](O)[C@H](O)CC[C@@H](O)C[C@@H](O)CC(=O)O[C@H]1C)C[C@H](O)[C@H]2C(=O)O [amphotericin B] : 1.26
2. CN(Cc1cnc2nc(N)nc(N)c2n1)c1ccc(C(=O)N[C@@H](CCC(=O)O)C(=O)O)cc1 [methotrexate] + CCC(C)n1ncn(-c2ccc(N3CCN(c4ccc(OCC5COC(Cn6cncn6)(c6ccc(Cl)cc6Cl)O5)cc4)CC3)cc2)c1=O [itraconazole] : -0.688

====

A collection of compounds and their measured Bliss independence sum
test system: Saccharomyces cerevisiae ZIM 2566 (RPMI); assay: Bliss independence sum of statistically significant ΔE (measured minus predicted growth inhibition) over checkerboard surface (fraction (sum of ΔE; 1 = 100%)); higher = more synergy; conditions: temperature: 37 °C
PROPERTY LABEL: Bliss independence sum

1. COc1c(C)c2c(c(O)c1C/C=C(\C)CCC(=O)O)C(=O)OC2 [mycophenolic acid] + C[C@@H]1[C@H](O)[C@@H](C)/C=C/C=C/C=C/C=C/C=C/C=C/C=C/[C@H](O[C@@H]2O[C@H](C)[C@@H](O)[C@H](N)[C@@H]2O)C[C@@H]2O[C@](O)(C[C@@H](O)C[C@@H](O)[C@H](O)CC[C@@H](O)C[C@@H](O)CC(=O)O[C@H]1C)C[C@H](O)[C@H]2C(=O)O [amphotericin B] : -0.484
2. CN(Cc1cnc2nc(N)nc(N)c2n1)c1ccc(C(=O)N[C@@H](CCC(=O)O)C(=O)O)cc1 [methotrexate] + CCC(C)n1ncn(-c2ccc(N3CCN(c4ccc(OCC5COC(Cn6cncn6)(c6ccc(Cl)cc6Cl)O5)cc4)CC3)cc2)c1=O [itraconazole] : 1.34
3. CN(Cc1cnc2nc(N)nc(N)c2n1)c1ccc(C(=O)N[C@@H](CCC(=O)O)C(=O)O)cc1 [methotrexate] + C[C@@H]1[C@H](O)[C@@H](C)/C=C/C=C/C=C/C=C/C=C/C=C/C=C/[C@H](O[C@@H]2O[C@H](C)[C@@H](O)[C@H](N)[C@@H]2O)C[C@@H]2O[C@](O)(C[C@@H](O)C[C@@H](O)[C@H](O)CC[C@@H](O)C[C@@H](O)CC(=O)O[C@H]1C)C[C@H](O)[C@H]2C(=O)O [amphotericin B] : -3.15
